Target: UniProt:P08183
Experiment: Inhibition of MDR1-mediated efflux-pump activity in mouse L5178Y cells expressing human MDR1 assessed as fluorescence activity ratio at 2 uM preincubated for 10 mins followed by rhodamine-123 addition measured after 20 mins by flow cytometry
Format: cell-based

>  <COMPOUND>
CO[C@H]1C=C2[C@@H](CC[C@H](O)C2(C)C)[C@]2(C)CC[C@]3(C)[C@@H]([C@H](C)C[C@H](C=C(C)C)OC(=O)/C=C/c4ccccc4)CC[C@@]3(C)[C@H]12 [KARAVOATE O]

>  <TGT>
UniProt:P08183

>  <Ratio>
1.3

$$$$
>  <COMPOUND>
CO[C@H]1C=C2[C@@H](CC[C@H](OC(=O)c3ccc(Cl)cc3)C2(C)C)[C@]2(C)CC[C@]3(C)[C@@H]([C@H](C)C[C@H](C=C(C)C)OC(=O)c4ccc(Cl)cc4)CC[C@@]3(C)[C@H]12 [KARAVOATE L]

>  <TGT>
UniProt:P08183

>  <Ratio>
1

$$$$

====

Target: UniProt P08183
Assay: Inhibition of MDR1-mediated efflux-pump activity in mouse L5178Y cells expressing human MDR1 assessed as side scattered light at 2 uM preincubated for 10 mins followed by rhodamine-123 addition measured after 20 mins by flow cytometry (reference value: 194.6 to 286.4)
Format: cell-based
Mark Yes for reported Activity of 200 or greater; mark No for anything smaller.

>  <COMPOUND>
CO[C@H]1C=C2[C@@H](CC[C@H](OC(=O)c3ccc(Cl)cc3)C2(C)C)[C@]2(C)CC[C@]3(C)[C@@H]([C@H](C)C[C@H](C=C(C)C)OC(=O)c4ccc(Cl)cc4)CC[C@@]3(C)[C@H]12 [KARAVOATE L]

>  <ASSIGNED CLASS>
Yes

$$$$
>  <COMPOUND>
CO[C@H]1C=C2[C@@H](CC[C@H](OC(=O)CCC(=O)O)C2(C)C)[C@]2(C)CC[C@]3(C)[C@@H]([C@H](C)C[C@H](C=C(C)C)OC(=O)CCC(=O)O)CC[C@@]3(C)[C@H]12

>  <ASSIGNED CLASS>
No

$$$$
>  <COMPOUND>
C=C(C)[C@@H](O)[C@H](O)C[C@@H](C)[C@H]1CC[C@@]2(C)[C@@H]3[C@@H](O)C=C4[C@@H](CC[C@H](O)[C@]4(C)CO)[C@]3(C)CC[C@]12C

>  <ASSIGNED CLASS>
Yes

$$$$
>  <COMPOUND>
CC(C)=C[C@H](O)C[C@@H](C)[C@H]1CC[C@@]2(C)[C@@H]3C(=O)C=C4[C@@H](CC[C@H](O)C4(C)C)[C@]3(C)CC[C@]12C

>  <ASSIGNED CLASS>
Yes

$$$$

====

Overview of recorded Flu intensity for various compounds
Target: ATP-dependent translocase ABCB1 (Homo sapiens)
Sequence (P08183 whole entry): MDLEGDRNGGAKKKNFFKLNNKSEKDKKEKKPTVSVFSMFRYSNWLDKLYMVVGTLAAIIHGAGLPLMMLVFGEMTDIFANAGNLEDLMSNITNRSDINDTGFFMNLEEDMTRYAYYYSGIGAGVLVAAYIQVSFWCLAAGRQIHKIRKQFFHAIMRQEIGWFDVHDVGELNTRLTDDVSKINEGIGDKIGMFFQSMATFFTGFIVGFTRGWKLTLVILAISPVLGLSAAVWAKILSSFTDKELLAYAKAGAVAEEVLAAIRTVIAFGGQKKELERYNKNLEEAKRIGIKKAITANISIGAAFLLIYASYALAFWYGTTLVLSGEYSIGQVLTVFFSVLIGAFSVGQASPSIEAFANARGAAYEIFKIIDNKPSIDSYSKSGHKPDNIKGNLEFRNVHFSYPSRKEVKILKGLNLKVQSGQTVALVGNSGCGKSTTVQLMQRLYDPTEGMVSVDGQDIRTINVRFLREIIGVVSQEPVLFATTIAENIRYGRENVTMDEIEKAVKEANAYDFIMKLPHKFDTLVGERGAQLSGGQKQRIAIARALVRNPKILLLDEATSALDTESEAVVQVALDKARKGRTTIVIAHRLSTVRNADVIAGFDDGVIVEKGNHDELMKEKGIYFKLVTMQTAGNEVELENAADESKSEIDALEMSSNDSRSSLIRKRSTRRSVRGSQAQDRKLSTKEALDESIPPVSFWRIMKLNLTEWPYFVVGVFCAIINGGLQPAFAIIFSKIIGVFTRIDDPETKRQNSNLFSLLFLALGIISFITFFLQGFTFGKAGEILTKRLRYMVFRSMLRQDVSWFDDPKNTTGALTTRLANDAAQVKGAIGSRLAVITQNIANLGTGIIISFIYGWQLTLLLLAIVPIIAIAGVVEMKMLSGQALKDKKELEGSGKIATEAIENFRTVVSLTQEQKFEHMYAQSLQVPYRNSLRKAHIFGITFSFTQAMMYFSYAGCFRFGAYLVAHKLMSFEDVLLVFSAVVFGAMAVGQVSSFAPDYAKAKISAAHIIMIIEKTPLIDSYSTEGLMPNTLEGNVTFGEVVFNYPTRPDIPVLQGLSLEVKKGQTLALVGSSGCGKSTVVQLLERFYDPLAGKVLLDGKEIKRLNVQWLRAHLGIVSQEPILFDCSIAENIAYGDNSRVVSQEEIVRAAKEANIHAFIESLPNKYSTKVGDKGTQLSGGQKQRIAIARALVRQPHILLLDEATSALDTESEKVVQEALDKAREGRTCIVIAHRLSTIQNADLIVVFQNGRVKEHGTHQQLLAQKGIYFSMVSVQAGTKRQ
Test: Inhibition of MDR1-mediated efflux-pump activity in mouse L5178Y cells expressing human MDR1 assessed as mean fluorescence intensity at 20 uM preincubated for 10 mins followed by rhodamine-123 addition measured after 20 mins by flow cytometry (reference value: 7.1 to 18.6)
Type: cell-based
MEASURED ATTRIBUTE: Flu intensity

>  <COMPOUND>
CC(C)=CC(=O)C[C@@H](C)[C@H]1CC[C@@]2(C)[C@@H]3C(=O)C=C4[C@@H](CC[C@H](O)[C@]4(C)CO)[C@]3(C)CC[C@]12C

>  <MEASURED ATTRIBUTE>
Flu intensity

>  <REPORTED MEASUREMENT>
1537.8

$$$$
>  <COMPOUND>
CC(C)=C[C@H](O)C[C@@H](C)[C@H]1CC[C@@]2(C)[C@@H]3[C@@H](O)C=C4[C@@H](CC[C@H](O)[C@]4(C)CO)[C@]3(C)CC[C@]12C

>  <MEASURED ATTRIBUTE>
Flu intensity

>  <REPORTED MEASUREMENT>
766.1

$$$$
>  <COMPOUND>
CO[C@H]1C=C2[C@@H](CC[C@H](OC(=O)CCC(=O)O)C2(C)C)[C@]2(C)CC[C@]3(C)[C@@H]([C@H](C)C[C@H](C=C(C)C)OC(=O)CCC(=O)O)CC[C@@]3(C)[C@H]12

>  <MEASURED ATTRIBUTE>
Flu intensity

>  <REPORTED MEASUREMENT>
39.5

$$$$
>  <COMPOUND>
C[C@H](C/C=C/C(C)(C)O)[C@H]1CC[C@@]2(C)[C@@H]3[C@@H](O)C=C4[C@@H](CC[C@H](O)C4(C)C)[C@]3(C)CC[C@]12C

>  <MEASURED ATTRIBUTE>
Flu intensity

>  <REPORTED MEASUREMENT>
368.4

$$$$
>  <COMPOUND>
CO[C@H]1C=C2[C@@H](CC[C@H](OC(=O)c3ccccc3)C2(C)C)[C@]2(C)CC[C@]3(C)[C@@H]([C@H](C)C[C@H](C=C(C)C)OC(=O)c4ccccc4)CC[C@@]3(C)[C@H]12 [KARAVOATE H]

>  <MEASURED ATTRIBUTE>
Flu intensity

>  <REPORTED MEASUREMENT>
10.4

$$$$
>  <COMPOUND>
COc1ccc(C(=O)O[C@@H](C=C(C)C)C[C@@H](C)[C@H]2CC[C@@]3(C)[C@@H]4[C@@H](OC)C=C5[C@@H](CC[C@H](O)C5(C)C)[C@]4(C)CC[C@]23C)cc1 [KARAVOATE M]

>  <MEASURED ATTRIBUTE>
Flu intensity

>  <REPORTED MEASUREMENT>
11.4

$$$$
>  <COMPOUND>
COc1ccc(C(=O)O[C@H]2CC[C@@H]3C(=C[C@H](OC)[C@@H]4[C@@]3(C)CC[C@]3(C)[C@@H]([C@H](C)C[C@H](C=C(C)C)OC(=O)c5ccc(OC)cc5)CC[C@@]43C)C2(C)C)cc1 [KARAVOATE N]

>  <MEASURED ATTRIBUTE>
Flu intensity

>  <REPORTED MEASUREMENT>
9.7

$$$$

Origin of measurements: ChEMBL document CHEMBL3860050
